- experimentNotes: Plasma stability, mouse plasma
- Format: in vitro ADME
- runConditions: 37° C., 0-4 hours, LC-MS/MS, "Very long" = no significant degradation found in the test (4 hours), read-out: Mouse plasma (T1/2 (h)) (converted)
Square brackets hold non-standard residues; d marks the D form. Peptide text beside a SMILES is read from it. * marks the point of attachment. PEG8 = NCCOCCOCCOCCOCCOCCOCCOCCOCCC(=O)O; Palmitoyl = CCCCCCCCCCCCCCCC(=O)*; Tic = O=C(O)[C@@H]1Cc2ccccc2CN1; NMeL = CN[C@@H](CC(C)C)C(=O)O; βAla = NCCC(=O)O
For each record, write down the corresponding half-life at 500 ng/mL.
Answers are plain numbers, in h.

Reference set (2 entries):
compound: CC(C)C[C@H](NC(=O)[C@H](Cc1ccccc1)NC(=O)[C@H](N)Cc1ccc(O)cc1)C(=O)N1CCC[C@H]1C(=O)N[C@H](CO)C(=O)N[C@@H](CCC(N)=O)C(=O)N[C@@H](Cc1ccccc1)C(=O)N[C@H](C)C(=O)N1Cc2ccccc2C[C@H]1C(=O)N[C@@H](CO)C(=O)O [YW-3, reference compound] (H-[dY]FLP[dS]QF[dA][Tic]S-OH)
half-life at 500 ng/mL [h]: 35.4

compound: CCCCCCCCCCCCCCCC(=O)NCCOCCOCCOCCOCCOCCOCCOCCOCCC(=O)NCCC(=O)NCCC(=O)N[C@H](Cc1ccc(O)cc1)C(=O)N[C@@H](Cc1ccccc1)C(=O)N(C)[C@@H](CC(C)C)C(=O)N1CCC[C@H]1C(=O)N[C@H](CO)C(=O)N[C@@H](CCC(N)=O)C(=O)N[C@@H](Cc1ccccc1)C(=O)N[C@H](C)C(=O)N1Cc2ccccc2C[C@H]1C(=O)N[C@@H](CO)C(=O)O [YW-134] ({Palmitoyl-PEG8-βAla-βAla}-[dY]F[NMeL]P[dS]QF[dA][Tic]S-OH)
half-life at 500 ng/mL [h]: 11.4

Kindly consider the entry below.
Field half-life at 500 ng/mL (entry CCCCCCCCCCCCCCCC(=O)NCCOCCOCCOCCOCCOCCOCCOCCOCCC(=O)NCC(=O)NCC(=O)N[C@H](Cc1ccc(O)cc1)C(=O)N[C@@H](Cc1ccccc1)C(=O)N(C)[C@@H](CC(C)C)C(=O)N1CCC[C@H]1C(=O)N[C@H](CO)C(=O)N[C@@H](CCC(N)=O)C(=O)N[C@@H](Cc1ccccc1)C(=O)N[C@H](C)C(=O)N1Cc2ccccc2C[C@H]1C(=O)N[C@@H](CO)C(=O)O [YW-133] ({Palmitoyl-PEG8}-GG[dY]F[NMeL]P[dS]QF[dA][Tic]S-OH) ) reads 67.1
